B1: SMG5 (parent)
chain: QEKLQVLMAEGLLPAVKVFLDWLR

variants of: B1; experiment: protein stability index of a GFP-peptide fusion (GPS, HEK-293T) (PSI 1-6); higher = more stable; conditions: c terminus: a fixed tail appended;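 also: lentivirally expressed fusions sorted by FACS into six bins by GFP to DsRed ratio, PSI derived from sequencing read proportions per bin multiplied by bin number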
The label depends only on protein stability index: t if it is at least 2, f if it is smaller.

stdin: Please check the record "D21C" and state if its protein stability index is at or above 2.
stdout: f

stdin: Please check the record "V18Y" and state if its protein stability index is at or above 2.
stdout: t

stdin: Please check the record "L20F" and state if its protein stability index is at or above 2.
stdout: t

stdin: Please check the record "L20D" and state if its protein stability index is at or above 2.
stdout: f

stdin: Please check the record "K17N" and state if its protein stability index is at or above 2.
stdout: t

stdin: Please check the record "F19N" and state if its protein stability index is at or above 2.
stdout: f

stdin: Please check the record "L23F" and state if its protein stability index is at or above 2.
stdout: t

stdin: Please check the record "F19C" and state if its protein stability index is at or above 2.
stdout: t

stdin: Please check the record "M8E" and state if its protein stability index is at or above 2.
stdout: t

stdin: Please check the record "K3I" and state if its protein stability index is at or above 2.
stdout: f

stdin: Please check the record "A9V" and state if its protein stability index is at or above 2.
stdout: f

stdin: Please check the record "V6Y" and state if its protein stability index is at or above 2.
stdout: t

stdin: Please check the record "L12I" and state if its protein stability index is at or above 2.
stdout: t

stdin: Please check the record "A9E" and state if its protein stability index is at or above 2.
stdout: t

stdin: Please check the record "M8H" and state if its protein stability index is at or above 2.
stdout: t

stdin: Please check the record "Q5C" and state if its protein stability index is at or above 2.
stdout: t

stdin: Please check the record "E2K" and state if its protein stability index is at or above 2.
stdout: t

stdin: Please check the record "K3A" and state if its protein stability index is at or above 2.
stdout: t

stdin: Please check the record "Q1N" and state if its protein stability index is at or above 2.
stdout: f

stdin: Please check the record "L7R" and state if its protein stability index is at or above 2.
stdout: t

stdin: Please check the record "E2G" and state if its protein stability index is at or above 2.
stdout: f

stdin: Please check the record "V16P" and state if its protein stability index is at or above 2.
stdout: t

stdin: Please check the record "E2W" and state if its protein stability index is at or above 2.
stdout: f

stdin: Please check the record "E10A" and state if its protein stability index is at or above 2.
stdout: t

stdin: Please check the record "K3Q" and state if its protein stability index is at or above 2.
stdout: t

stdin: Please check the record "P14G" and state if its protein stability index is at or above 2.
stdout: f

stdin: Please check the record "R24E" and state if its protein stability index is at or above 2.
stdout: t

stdin: Please check the record "P14Q" and state if its protein stability index is at or above 2.
stdout: f

stdin: Please check the record "K17E" and state if its protein stability index is at or above 2.
stdout: f

stdin: Please check the record "V18I" and state if its protein stability index is at or above 2.
stdout: t

stdin: Please check the record "V6G" and state if its protein stability index is at or above 2.
stdout: t

stdin: Please check the record "E10D" and state if its protein stability index is at or above 2.
stdout: f

stdin: Please check the record "A15R" and state if its protein stability index is at or above 2.
stdout: t

stdin: Please check the record "A15T" and state if its protein stability index is at or above 2.
stdout: t

stdin: Please check the record "A9L" and state if its protein stability index is at or above 2.
stdout: t

stdin: Please check the record "A9T" and state if its protein stability index is at or above 2.
stdout: f

stdin: Please check the record "Q5W" and state if its protein stability index is at or above 2.
stdout: f

stdin: Please check the record "L12P" and state if its protein stability index is at or above 2.
stdout: t

stdin: Please check the record "M8Q" and state if its protein stability index is at or above 2.
stdout: t

stdin: Please check the record "G11N" and state if its protein stability index is at or above 2.
stdout: f

stdin: Please check the record "K3Y" and state if its protein stability index is at or above 2.
stdout: t

stdin: Please check the record "V18P" and state if its protein stability index is at or above 2.
stdout: f

stdin: Please check the record "Q5V" and state if its protein stability index is at or above 2.
stdout: t

stdin: Please check the record "D21E" and state if its protein stability index is at or above 2.
stdout: f

stdin: Please check the record "M8T" and state if its protein stability index is at or above 2.
stdout: t

stdin: Please check the record "L4C" and state if its protein stability index is at or above 2.
stdout: t

stdin: Please check the record "E10F" and state if its protein stability index is at or above 2.
stdout: f

stdin: Please check the record "E10H" and state if its protein stability index is at or above 2.
stdout: t

stdin: Please check the record "Q1S" and state if its protein stability index is at or above 2.
stdout: t

stdin: Please check the record "L7K" and state if its protein stability index is at or above 2.
stdout: t

stdin: Please check the record "R24Y" and state if its protein stability index is at or above 2.
stdout: f

stdin: Please check the record "L20E" and state if its protein stability index is at or above 2.
stdout: f

stdin: Please check the record "A15I" and state if its protein stability index is at or above 2.
stdout: f

stdin: Please check the record "G11V" and state if its protein stability index is at or above 2.
stdout: t
